Subject of test: Mouse ERK2 protein (Mus musculus (Mouse), UniProt P63085)
Sequence (P63085 whole entry): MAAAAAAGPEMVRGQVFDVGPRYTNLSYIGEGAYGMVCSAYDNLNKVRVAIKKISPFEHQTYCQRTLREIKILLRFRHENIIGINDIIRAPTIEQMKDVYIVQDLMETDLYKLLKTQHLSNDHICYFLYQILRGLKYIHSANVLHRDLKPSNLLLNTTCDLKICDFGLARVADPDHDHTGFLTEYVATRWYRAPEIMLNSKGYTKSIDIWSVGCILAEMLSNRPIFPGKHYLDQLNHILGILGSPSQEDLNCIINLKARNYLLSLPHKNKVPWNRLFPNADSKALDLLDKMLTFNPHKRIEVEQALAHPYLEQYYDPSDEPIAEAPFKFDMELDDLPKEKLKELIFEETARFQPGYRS
Assay overview: Coupled MEK1/ERK2 IMAP assay or Active ERK2 IMAP assay
Format: biochemical
Test conditions: Table 2, 30 μM ATP
Method: 14 μl of kinase buffer (10 mM Tris.HCl pH 7.2, 10 mM MgCl2, 0.01% Tween-20, 1 mM DTT) containing 0.4 ng unphosphorylated Mouse ERK2 protein is added to each well of a black 384-well assay plate. […] DMSO concentration during initial incubation is 6.7%. […] Binding is allowed to equilibrate for 30 minutes before reading the plate on an LJL Analyst Fluorescence Polarization plate reader. Activated ERK2 activity was also determined in the IMAP assay format using the procedure outlined above. […]
Listing of recorded pIC50 by entry.
Reminder that pIC50 is minus the log10 of a molar concentration.

Solved entries (count: 5):
O=C(N[C@H]1CNC[C@@H]1c1ccccc1)N1CCc2[nH]nc(-c3ccncc3)c2C1 (racemic) [Compound 37] | 8.94
COc1cccc(F)c1CN1CCC[C@@H](NC(=O)N2CCc3[nH]nc(-c4ccncc4)c3C2)C1 [Compound 53] | 8.42
CCn1cc(-c2n[nH]c3c2CN(C(=O)NC2CN(C)CC2c2ccccc2C)CC3)cn1 (racemic) [Compound 147] | 8.72
O=C(N[C@@H]1CCCN(Cc2csc3ccccc23)C1)N1CCc2[nH]nc(-c3ccc4nccn4c3)c2C1 [Compound 109] | 8.52
O=C(N[C@@H]1CCCN(Cc2c(F)cccc2F)C1)N1CCc2[nH]nc(-c3ccncc3)c2C1 [Compound 54] | 8.71

Quick note, pIC50 for Cc1cc(-c2n[nH]c3c2CN(C(=O)NC2CCCN(Cc4c(C)cccc4C)C2)CC3)ccn1 (centres unmarked) [Compound 84] landed at 8.20

Lookup result for Cc1ccccc1[C@@H]1CN(C)C[C@H]1NC(=O)N1CCc2[nH]nc(-c3ccncc3)c2C1 [Compound 46] ; measured pIC50: 9.05

Noted for COc1cccc(F)c1CN1CCC[C@@H](NC(=O)N2CCc3[nH]nc(-c4ccc5nccn5c4)c3C2)C1 [Compound 113] : its pIC50 reads 8.38
